experiment-notes: Solubility in water
Assay type: physicochemical
experimental-conditions: Cl^− form
assay-readout: solubility

> print(dat)
                         structure.notation  assay.readout    result
1  CC[n+]1cc(/C=C2\CCC[N+]3=C2C(C)(C)c2ccccc23)cc2ccccc21     solubility  ≥ 300 µM

----------
experiment-notes: Solubility in water
Type: physicochemical
As shown below, each of these compounds has a reported solubility value.

compound	solubility
C[N+]1=C(/C=C/c2ccc[n+](C)c2)C(C)(C)c2ccccc21	≥ 114 mM
C[N+]1=C(/C=C/c2cccc3c2ncc[n+]3C)C(C)(C)c2ccccc21.O=S(=O)([O-])C(F)(F)F.[I-]	≥ 9 mM
C[N+]1=C(/C=C/c2ccc3c(ccc[n+]3C)c2)C(C)(C)c2ccccc21.O=S(=O)([O-])C(F)(F)F.[I-] [drawing 35]	≥ 15 mM
CCOc1cccc2c1nc1c(/C=C/C3=[N+](C)c4ccccc4C3(C)C)cccc1[n+]2C.[Cl-].[Cl-]	≥ 7 mM
C[N+]1=C(/C=C/c2cc3ccccc3[n+](C)c2)C(C)(C)c2ccccc21.O=S(=O)([O-])C(F)(F)F.[I-]	≥ 10 mM
C[N+]1=C(/C=C/c2ccc(-c3ccc(/C=C/C4=[N+](C)c5ccccc5C4(C)C)c[n+]3C)[n+](C)c2)C(C)(C)c2ccccc21.O=S(=O)([O-])C(F)(F)F.O=S(=O)([O-])C(F)(F)F.[I-].[I-]	≥ 15 mM
C[N+]1=C(/C=C/c2c[n+](C)cc3ccccc23)C(C)(C)c2ccccc21	≥ 25 mM
CC[n+]1cc(/C=C/C2=[N+](C)c3ccccc3C2(C)C)cc2ccccc21	≥ 4 mM
C[N+]1=C(/C=C/c2cccc3c2nc2ccccc2[n+]3C)C(C)(C)c2ccccc21.O=S(=O)([O-])C(F)(F)F.[I-]	≥ 4 mM
